# Tested on: Human alphaherpesvirus 1
# Measurement Notes: Antiviral activity against HSV1 infected in human KB cells assessed as inhibition of virus-induced cytopathic effect after 72 hrs relative to control
# Format: functional, organism-based
Active and inactive are the calls of the source. The rule behind the calls is not given here.

{"columns": ["Smiles String", "Activity"],
 "data": [
  ["N#CCc1[nH]cnc1C(N)=O", "Active"],
  ["Nc1cc2c(ncn2[C@@H]2O[C@H](CO)[C@@H](O)[C@H]2O)c(=O)[nH]1", "Active"],
  ["NC(=O)c1ncn([C@@H]2O[C@H](CO)[C@@H](O)[C@H]2O)n1", "Active"]
]}
